Test system: SARS-CoV-2 original virus (SARS-CoV-2/human/Denmark/DK-AHH1/2020)
Assay protocol: microbe, parasite or virus in culture
Assay type: cell-based
Experimental setup: Severe acute respiratory syndrome coronavirus 2
Exercise: for every item that follows, state its recorded pEC50.
# reply with the number alone; pEC50 is -log10 of concentration in mol/L

### Prompt Data request, read-out pEC50, for Cn1cnc(Cn2c(=O)[nH]/c(=N\c3cc4cn(C)nc4cc3Cl)n(Cc3cc(F)c(F)cc3F)c2=O)n1
### Response 7.00

### Prompt Try the compound CC(C)(C)[C@H](NC(=O)C(F)(F)F)C(=O)N1C[C@H]2[C@@H]([C@H]1C(=O)N[C@H](C#N)C[C@@H]1CCNC1=O)C2(C)C
### Response 7.40

Just for reference, paper PMC12529750 is where these values come from.
